Each record here notes measured Ki.
targetOrTestSystem: UniProtKB P32754
Sequence (P32754 whole entry): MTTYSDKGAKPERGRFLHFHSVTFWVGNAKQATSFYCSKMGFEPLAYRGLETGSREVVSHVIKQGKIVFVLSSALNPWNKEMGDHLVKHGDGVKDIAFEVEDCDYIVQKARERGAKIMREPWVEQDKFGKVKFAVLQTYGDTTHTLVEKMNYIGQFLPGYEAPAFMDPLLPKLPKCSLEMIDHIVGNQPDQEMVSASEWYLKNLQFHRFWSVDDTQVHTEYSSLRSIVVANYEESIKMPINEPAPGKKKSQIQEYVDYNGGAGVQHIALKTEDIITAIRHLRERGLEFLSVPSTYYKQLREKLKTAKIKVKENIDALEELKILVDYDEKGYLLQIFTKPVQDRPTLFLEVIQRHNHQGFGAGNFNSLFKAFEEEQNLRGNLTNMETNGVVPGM
assayName: Inhibition of purified His6-tagged recombinant human HPPD assessed as inhibition of maleylacetoacetate formation after 30 mins by UV/visible spectrophotometry

// known answers, use as guide
INSERT INTO measurements (molsmiles, measuredattribute, result) VALUES
  ('Cc1nn(C)c(O)c1C(=O)c1ccc2nc(C)n(-c3cccc(F)c3)c(=O)c2c1', 'Ki', '90 nM'),
  ('Cc1nc2ccc(C(=O)c3cnn(C)c3O)cc2c(=O)n1-c1ccc(OC(F)(F)F)cc1', 'Ki', '160 nM'),
  ('Cc1nc2ccc(C(=O)c3cnn(C)c3O)cc2c(=O)n1-c1ccc(Cl)cc1', 'Ki', '22 nM');

Request: Provide Ki value for the following compound: `Cc1nc2ccc(C(=O)c3cnn(C)c3O)cc2c(=O)n1-c1ccc(Br)cc1`
Response: 18 nM

Request: Retrieve Ki measured for `Cc1nn(C)c(O)c1C(=O)c1ccc2nc(C)n(-c3ccccc3F)c(=O)c2c1` and print it.
Response: 79 nM

Request: Give me measured Ki, please, for this compound: `Cc1nn(C)c(O)c1C(=O)c1ccc2nc(C)n(-c3ccc(Br)cc3)c(=O)c2c1`
Response: 130 nM

Request: For `Cc1nc2ccc(C(=O)c3cnn(C)c3O)cc2c(=O)n1-c1cccc(Cl)c1` , write its Ki.
Response: 10 nM

Request: Output measured Ki for this item: `Cc1ccc(-n2c(C)nc3ccc(C(=O)c4c(C)nn(C)c4O)cc3c2=O)cc1`
Response: 156 nM

Request: Dear colleague, please send me the reported Ki for `Cc1nn(C)c(O)c1C(=O)c1ccc2nc(C)n(-c3ccc(Cl)cc3)c(=O)c2c1` when you can.
Response: 237 nM

Request: Provide measured Ki value, entry: `Cc1ccccc1-n1c(C)nc2ccc(C(=O)c3cnn(C)c3O)cc2c1=O`
Response: 58 nM

Request: // Input: `Cc1ccc(-n2c(C)nc3ccc(C(=O)c4c(C)nn(C)c4O)cc3c2=O)c(Cl)c1` . Output its Ki only.
Response: 109 nM

Request: Dear colleague, please send me the reported Ki for `Cc1nn(C)c(O)c1C(=O)c1ccc2nc(C)n(-c3ccc(F)cc3)c(=O)c2c1` when you can.
Response: 247 nM

Request: Identify Ki associated with the compound `Cc1nc2ccc(C(=O)c3cnn(C)c3O)cc2c(=O)n1-c1ccccc1Cl`
Response: 22 nM

Request: Return Ki (reported value) for this compound: `Cc1ccc(-n2c(C)nc3ccc(C(=O)c4cnn(C)c4O)cc3c2=O)c(F)c1`
Response: 170 nM

Request: Identify measured Ki associated with `Cc1cc(F)ccc1-n1c(C)nc2ccc(C(=O)c3c(C)nn(C)c3O)cc2c1=O`
Response: 219 nM

Request: Name the recorded Ki of the compound listed here: `COc1ccc(-n2c(C)nc3ccc(C(=O)c4c(C)nn(C)c4O)cc3c2=O)cc1`
Response: 238 nM

Request: Give a short answer stating reported Ki for `Cc1ccc(-n2c(C)nc3ccc(C(=O)c4cnn(C)c4O)cc3c2=O)c(Br)c1` .
Response: 11 nM

Request: Write down Ki measured for item `Cc1nc2ccc(C(=O)c3cnn(C)c3O)cc2c(=O)n1-c1cccc(Br)c1`
Response: 14 nM

Request: Quickly give me recorded Ki for `COc1ccc(-n2c(C)nc3ccc(C(=O)c4cnn(C)c4O)cc3c2=O)cc1`
Response: 60 nM

Request: Please look at this compound and report its Ki: `COc1ccccc1-n1c(C)nc2ccc(C(=O)c3cnn(C)c3O)cc2c1=O`
Response: 38 nM

Request: Determine from records and report Ki for `Cc1nc2ccc(C(=O)c3cnn(C)c3O)cc2c(=O)n1-c1ccccc1F`
Response: 15 nM

Request: Indicate the recorded Ki value for this compound: `Cc1nc2ccc(C(=O)c3cnn(C)c3O)cc2c(=O)n1-c1cccc(F)c1`
Response: 20 nM

Request: Given `Cc1cccc(-n2c(C)nc3ccc(C(=O)c4c(C)nn(C)c4O)cc3c2=O)c1` , respond with its Ki.
Response: 74 nM

Request: Note down Ki recorded for `Cc1ccc(-n2c(C)nc3ccc(C(=O)c4cnn(C)c4O)cc3c2=O)cc1`
Response: 25 nM
